Origin of the recorded values: ChEMBL document CHEMBL5543127

Experiment: Inhibition of quorum sensing system in Pseudomonas aeruginosa PAO1 at logarithmic growth period assessed as inhibition of pyocyanin production at 102.4 microg/ml incubated for 18 hrs by pyocyanin inhibition assay
Details: dose 102.4 µg/ml
The source made the active and inactive calls. The rule behind the calls is not given here.
QUANTITY MEASURED: inhibition

1) Cn1c(=NNC(=O)CCCCOc2ccc(F)cc2)sc2ccccc21: Active
2) O=C(COc1ccc(F)cc1)NNc1nc2ccccc2o1: 43.6%
3) CCCCCCCCCC(=O)N/N=c1\sc2ccccc2n1C: Active

###

MIC overview
Tested on: Pseudomonas aeruginosa
Assay: Anti-microbial activity against Pseudomonas aeruginosa PAO1 incubated for 20 hrs By CLSI based micro-dilution method
Format: functional

1. O=C1C=C(Br)/C(=C\Br)O1: 128 µg/mL
2. CCCCCCCCCC(=O)N/N=c1\sc2ccccc2n1C: > 512 µg/mL
3. CCCCC(=O)N/N=c1\sc2ccccc2n1C: > 512 µg/mL

What the record says about `Clc1ccc(/C=N/Nc2nc3ccccc3o2)cc1` : MIC is > 512 µg/mL
